ASSAY_NOTES: Maximal concentration in rats after 7.6 mg/kg oral dose
Type: ADME, organism-based
Set-up: dose 7.6 mg/kg, route oral
ASSAY_CONDITIONS: rat, in vivo

[
  {
    "MOLECULE": "CC(C(=O)O)c1ccc(-c2ccccc2)c(F)c1 (stereo unspecified)",
    "Cmax / µg/mL": 49.1
  }
]

###

TESTED_ON: Cytochrome P450 3A4 (Homo sapiens)
Sequence (P08684 whole entry, canonical isoform): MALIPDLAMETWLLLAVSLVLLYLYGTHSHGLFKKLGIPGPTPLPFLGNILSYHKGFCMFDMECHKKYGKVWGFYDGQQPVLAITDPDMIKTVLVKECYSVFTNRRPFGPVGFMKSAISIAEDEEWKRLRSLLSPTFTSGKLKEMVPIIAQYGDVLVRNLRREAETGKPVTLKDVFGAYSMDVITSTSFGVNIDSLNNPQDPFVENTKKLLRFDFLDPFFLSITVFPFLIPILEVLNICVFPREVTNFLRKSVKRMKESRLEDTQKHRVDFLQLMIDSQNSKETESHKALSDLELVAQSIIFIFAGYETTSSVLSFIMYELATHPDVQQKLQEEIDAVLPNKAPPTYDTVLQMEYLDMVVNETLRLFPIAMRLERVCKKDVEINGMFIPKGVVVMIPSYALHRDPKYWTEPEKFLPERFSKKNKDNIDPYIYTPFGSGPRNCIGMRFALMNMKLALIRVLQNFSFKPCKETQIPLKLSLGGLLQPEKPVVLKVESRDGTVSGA
ASSAY_NOTES: Interaction with human cytochrome P450 isoform 3A4 expressed in baculovirus-insect cells
Type: ADME
pIC50: −log10 of the molar value.
Measured pIC50, listed per entry for reference.
PROPERTY_MEASURED: pIC50

[
  {
    "MOLECULE": "CC1(C)CCC(c2ccc(-c3ccc(C4(C(=O)O)CC4)cc3F)cc2)CC1",
    "PROPERTY_MEASURED": "pIC50",
    "VAL": 4.08
  },
  {
    "MOLECULE": "CC1(C)CC(Oc2ccc(-c3ccc(C4(C(=O)O)CC4)cc3F)cc2)CC(C)(C)C1",
    "PROPERTY_MEASURED": "pIC50",
    "VAL": 4.57
  },
  {
    "MOLECULE": "O=C(O)C1(c2ccc(-c3ccc(-c4ccc(O)cc4)c(F)c3)c(F)c2)CC1",
    "PROPERTY_MEASURED": "pIC50",
    "VAL": 4.24
  },
  {
    "MOLECULE": "CC(C)(C(=O)O)c1ccc(-c2ccc(C3CCCCC3)cc2)c(F)c1",
    "PROPERTY_MEASURED": "pIC50",
    "VAL": 4.23
  },
  {
    "MOLECULE": "CC(C(=O)O)c1ccc(-c2ccc(-c3ccc(O)cc3)cc2)c(F)c1 (stereo unspecified)",
    "PROPERTY_MEASURED": "pIC50",
    "VAL": 4.13
  },
  {
    "MOLECULE": "O=C(O)C1(c2ccc(-c3ccc(-c4ccc(F)cc4)c(F)c3)c(F)c2)CC1",
    "PROPERTY_MEASURED": "pIC50",
    "VAL": 4.42
  }
]
